The following compounds are shown together with reported IC50 values.
- ASSAY_SYSTEM: ROCKII (1-543) (Homo sapiens (Human), UniProt O75116)
- Sequence (O75116 1-543, species assumed): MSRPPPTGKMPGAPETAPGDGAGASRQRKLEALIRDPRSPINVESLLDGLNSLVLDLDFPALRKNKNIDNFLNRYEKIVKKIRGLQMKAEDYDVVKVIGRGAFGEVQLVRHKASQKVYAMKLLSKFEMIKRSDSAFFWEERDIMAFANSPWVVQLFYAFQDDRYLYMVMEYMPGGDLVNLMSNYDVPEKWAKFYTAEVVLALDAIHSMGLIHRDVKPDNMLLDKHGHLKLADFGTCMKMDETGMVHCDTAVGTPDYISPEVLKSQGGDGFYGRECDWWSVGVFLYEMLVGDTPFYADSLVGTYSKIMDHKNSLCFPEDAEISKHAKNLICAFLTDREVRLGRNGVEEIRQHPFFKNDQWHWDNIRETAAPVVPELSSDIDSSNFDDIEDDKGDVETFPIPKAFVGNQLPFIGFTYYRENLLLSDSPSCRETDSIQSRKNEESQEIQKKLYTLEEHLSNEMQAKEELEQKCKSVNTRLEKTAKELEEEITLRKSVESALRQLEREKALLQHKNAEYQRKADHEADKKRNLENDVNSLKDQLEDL
- ASSAY_METHOD_TEXT: IMAP Assay (fluorescence polarization, FAM S6 peptide)
- Format: biochemical
- MEASUREMENT_CONTEXT: 100 μM ATP, 200 nM FAM S6 peptide, 1 nM kinase; read-out: Assay 2 IC50
Report the figure in nM without appending any unit label.

Before answering, review these 6 worked examples.
compound="Cc1nc(-c2ccncc2)sc1C(=O)N1CCC[C@@H]1c1cccc(C(=O)Nc2nc3c(s2)C[C@@H](N2CCOCC2)CC3)c1 [Compound 128]" property_measured=IC50 readout_value=29
compound="N#Cc1ccc(NC(=O)COc2cccc(C(=O)Nc3nc4c(s3)C[C@@H](N3CCOCC3)CC4)c2)cc1 [Compound 13]" property_measured=IC50 readout_value=8.5
compound="N#Cc1ccc(NC(=O)COc2cccc(C(=O)Nc3nc4c(s3)C[C@@H](N)CC4)c2)cc1 [Compound 11]" property_measured=IC50 readout_value=11
compound="CCCN[C@H]1CCc2nc(NC(=O)c3cccc([C@@H](C)NC(=O)c4ccc(OC)c(Cl)c4)c3)sc2C1 [Compound 33]" property_measured=IC50 readout_value=0.5
compound="CN1CCc2nc(NC(=O)c3cccc([C@H]4CCCN4C(=O)c4cccc(-c5cn[nH]c5)c4)c3)sc2C1 [Compound 78]" property_measured=IC50 readout_value=2.1
compound="O=C(Nc1nc2c(s1)C[C@@H](N1CCOCC1)CC2)c1cccc([C@H]2CCCN2C(=O)c2csc(-c3ccncc3)n2)c1 [Compound 120]" property_measured=IC50 readout_value=7.9

Please examine the following record next.
Q: Dear colleague, I am looking for the recorded IC50 of the following compound: COc1ccc(C(=O)N2CCC[C@@H]2c2cccc(C(=O)Nc3nc4c(s3)C[C@@H](N3CCOCC3)CC4)c2)cc1OC [Compound 112]
A: 6.8

// provenance: patent US9079880B2
